B1: TRAF3IP2 (parent)
chain: PGQPLPGASVRGLHPVQKVILNYP

Variants of: B1
Test: protein stability index of a GFP-peptide fusion (GPS, HEK-293T) (PSI 1-6); higher = more stable;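 further: lentivirally expressed fusions sorted by FACS into six bins by GFP to DsRed ratio, PSI derived from sequencing read proportions per bin multiplied by bin number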
Conditions: c terminus: a fixed tail appended
What protein stability index was measured for each of the following?

Answer with reported protein stability index of A8M
2.97

Find the measured protein stability index of V16I and report it.
3.09

State, in one line, measured protein stability index of P6N
3.21

Please list protein stability index recorded for the variant L13I
3.1

Look up and report measured protein stability index for this entry: P4M
3

Specify reported protein stability index for the variant shown: P24V
1.93

Give the measured protein stability index for K18W
2.76

Give reported protein stability index value for Q3N
3.28

Return protein stability index (reported value) for this variant: K18T
3.38

Could you please provide reported protein stability index for Q3M ? Thanks!
3.34

Give a short answer stating reported protein stability index for G2T .
3.21

Name the recorded protein stability index of the variant listed here: Q17R
3

# return recorded protein stability index for entry A8P
3.08

Return protein stability index for the following variant: I20F
3.38

Find the measured protein stability index of Q3R and report it.
3.11

Kindly indicate its recorded protein stability index. Item: G7L
3.44

Using known records, supply protein stability index for L21G
3.64

Annotate the variant L5K with its measured protein stability index.
3.25

For K18I , write its protein stability index.
2.08

Please indicate protein stability index recorded for L5S
3.43

Give a short answer stating reported protein stability index for L21S .
3.55

Identify measured protein stability index associated with K18N
2.65

Return the recorded protein stability index value; entry: P1M
3

Tell us which protein stability index value is on record for G7C
2.59

Please list protein stability index recorded for the variant Q3L
2.96

Let me know recorded protein stability index for N22P , thanks.
3.44

Output protein stability index of V16P
2.66

Fill in reported protein stability index for this entry: P4N
2.06

For the variant P4K , report protein stability index.
2.69

Tell me measured protein stability index for G7H please.
3.2

Retrieve protein stability index measured for L5M and print it.
3.44

Identify the reported protein stability index for the following entry. R11K
2.88

Please report protein stability index for the following variant: P15S
2.79

Write down protein stability index measured for item G12Y
2.74

Kindly indicate its recorded protein stability index. Item: S9M
2.68

Check the records and state protein stability index for G12L
2.12
